test system: 997726-040-R-J2-PDC tumor spheroids, viability; assay: Anticancer human tumor 997726-040-R-J2-PDC patient-derived squamous cell lung carcinoma cell line growth inhibition [PI3K]; conditions: second compound 0.316 µM; first compound 0.000316 µM; spheroids with HUVEC and MSC; active = viability on the fitted dose curve at most 10% of control; inactive = the rest;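 note: spheroids exposed to compounds for seven days before readout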
Tick one outcome: true (1) for active, false (0) for inactive

Consider the worked cases shown below.
- compound: "CC(=O)c1c(C)c2cnc(Nc3ccc(N4CCNCC4)cn3)nc2n(C2CCCC2)c1=O + CC(Nc1ccc2c(c1)OCCn1cc(N3C(=O)OCC3C(F)F)nc1-2)C(N)=O"
  category-label: "false (0)"
- compound: "CC(=O)c1c(C)c2cnc(Nc3ccc(N4CCNCC4)cn3)nc2n(C2CCCC2)c1=O + COc1c(OCCCN2CCOCC2)ccc2c3n(c(=NC(=O)c4cnc(N)nc4)nc12)CCN3"
  category-label: "true (1)"
- compound: "CC(=O)c1c(C)c2cnc(Nc3ccc(N4CCNCC4)cn3)nc2n(C2CCCC2)c1=O + CC(Nc1ncnc2nc[nH]c12)c1cc2cccc(Cl)c2c(=O)n1-c1ccccc1"
  category-label: "false (0)"
- compound: "Cn1ncnc1[C@H]1c2n[nH]c(=O)c3cc(F)cc(c23)N[C@@H]1c1ccc(F)cc1 + COc1c(OCCCN2CCOCC2)ccc2c3n(c(=NC(=O)c4cnc(N)nc4)nc12)CCN3"
  category-label: "true (1)"
- compound: "Cn1ncnc1[C@H]1c2n[nH]c(=O)c3cc(F)cc(c23)N[C@@H]1c1ccc(F)cc1 + Cc1nc(NC(=O)N2CCCC2C(N)=O)sc1-c1ccnc(C(C)(C)C(F)(F)F)c1"
  category-label: "false (0)"

Please examine the following record next.
For CC(C)n1nc(-c2ccc3oc(N)nc3c2)c2c(N)ncnc21 + COc1c(OCCCN2CCOCC2)ccc2c3n(c(=NC(=O)c4cnc(N)nc4)nc12)CCN3 , what call appears in the results of this test? true (1)
